assay: chemical genetic growth profiling, strain panel (AID 1159580);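 note: tested at 20 µM; growth read once vehicle control cultures reached saturation at 30 °C; 1 = growth at the plate median or of vehicle wells; lower values mean less growth of the strain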; conditions: S. cerevisiae deletion strains, growth OD, locus YPL256C, strain CLN2
Screen size: about 5,500 compounds; about 2,000 (36%) were called active. Not shown: some 18% with an inconclusive outcome. Cut-off read from the data, not from the text of the source: active = normalized growth mostly below about 0.91 (no sharp cut-off); inconclusive = no clear call, values can overlap the other calls; inactive = mostly above about 0.92. The list shows a part of the results.
Classes used: class 1 = active, class 0 = inactive

MOLECULE	ASSIGNED CLASS
Oc1c(I)cc(Cl)c2cccnc12	class 1
COc1ccccc1OCCNCC(O)COc1cccc2[nH]c3ccccc3c12 (stereo not given)	class 0
CC(=O)O[C@@H]1C[C@@]2(C)[C@H](c3ccoc3)C[C@H]3O[C@]32[C@]2(C)C(=O)C(O)=C3C(C)(C)C(=O)C=C[C@]3(C)C12 (stereo not given in full)	class 0
Oc1ccc(Cl)c2cccnc12	class 1
CCN(CC)CCNC(C(=O)OCCC(C)C)c1ccccc1 (stereo not given)	class 0

* * *

assay: chemical genetic growth profiling, strain panel (AID 1159580);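 note: tested at 20 µM; growth read once vehicle control cultures reached saturation at 30 °C; 1 = growth at the plate median or of vehicle wells; lower values mean less growth of the strain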; conditions: S. cerevisiae deletion strains, growth OD, locus YBR279W, strain paf1, hits give low values
The campaign covered roughly 5,500 compounds. About 2,000 (36%) were called active. Another 18% or so got no clear call; they are omitted. Some of the results follow.
The entries below are paired with their reported normalized growth.
MEASUREMENT TYPE: normalized growth

MOLECULE	TEST RESULT
CCCCC1=NC2(CCCC2)C(=O)N1Cc1ccc(-c2ccccc2-c2nn[nH]n2)cc1	1.01
CC(C)(C)NCC(O)c1ccccc1Cl (stereo unspecified)	1
COc1cc2c(c(OC)c1OC)-c1ccc(OC)c(=O)cc1[C@@H](NC(C)=O)CC2	1
C[C@H]1[C@H]2CCC3C4CC=C5C[C@@H](N(C)C)CC[C@]5(C)C4CC[C@@]32CN1C (stereo partly specified)	0.994
Oc1c(I)cc(I)c2cccnc12	0.0764
CC(C)NCC(O)c1ccc2ccccc2c1 (stereo unspecified)	0.998
C[n+]1cccc(C(=O)[O-])c1	0.972
C/C=C/c1ccc2c(c1)OCO2	1.02
C[C@H](N)[C@H](O)c1ccc(O)c(O)c1	1.02
CC(C)=CCC/C(C)=C/CC/C(C)=C/CC/C(C)=C/CC/C(C)=C/CC/C(C)=C/CC/C(C)=C/CC/C(C)=C/CC/C(C)=C/CO	0.966
CC(=O)c1c(O)c(C)c(O)c2c1OC1=CC(=O)C(C(C)=O)C(=O)C12C (stereo unspecified)	1.01

* * *

test: chemical genetic growth profiling, strain panel (AID 1159580);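 note: tested at 20 µM; growth read once vehicle control cultures reached saturation at 30 °C; 1 = growth at the plate median or of vehicle wells; lower values mean less growth of the strain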; conditions: S. cerevisiae deletion strains, growth OD, locus YNL222W, strain SSU72, hits give low values
Screen size: about 5,500 compounds; about 2,000 (36%) were called active. About 18% were inconclusive and are not listed. Some of the results follow.
Measured normalized growth accompanies every entry in the list below.

COMPOUND	normalized growth
O=C(c1ccccc1)c1cc(Cl)ccc1NC(=S)Nc1ccc(F)cc1	0.987
Cc1cccc(Cl)c1/C=N\NC(N)=S	0.931
N#CC(C#N)=C/C=C(/Sc1nc2ccccc2s1)c1ccc(Br)cc1	0.177
N#CC(C#N)=C/C=C(/Sc1ccc(F)c(Cl)c1)c1ccc(Cl)cc1	0.955
CC(C)c1ccc(N2C=Nc3ccc(C(C)C)cc3C2)cc1	1
O=C(Nc1ccc(C(F)(F)F)cc1)N1CCN(c2ccnc3cc(Cl)ccc23)CC1	0.982
CC(C)c1ccc(NCC(O)CSc2ccccc2)cc1 (stereo not given)	0.953
Cc1c2c(=O)[nH]ncc2c(-c2ccccc2)n1-c1ccc([N+](=O)[O-])cc1	0.98
Cc1cc(Br)ccc1-n1c(Sc2c([N+](=O)[O-])cc(C(F)(F)F)cc2[N+](=O)[O-])nc2ccccc2c1=O	0.983
S=C(N/N=C\c1ccc(Cl)cc1)N/N=C\c1ccc(Cl)cc1	0.961
